Listed next: entries and their corresponding TGI.
system: NCI-H522 lung; assay: NCI tumour cell line growth inhibition, 48 h
Your answer should be a plain number; it is taken to be in µM.

Reference set (3 entries):
[[record]]
compound = "Cc1ccc(C2=NN(c3ccc(S(=O)(=O)NC(=O)NCc4ccccc4)cc3)C(c3ccc(N(C)C)cc3)C2)c(C)c1 (stereo not given)"
experimental_target = "NCI-H522 lung"
observable = "TGI"
value_observed = 28.7

[[record]]
compound = "N#CC1=C(N)N=C(N2CCOCC2)C(C#N)C12Nc1ccccc1S2 (stereo not given)"
experimental_target = "NCI-H522 lung"
observable = "TGI"
value_observed = 51.5

[[record]]
compound = "COc1cccc2nc(Nc3cccc(NC(=O)c4ccc(N5CCN(C)CC5)c(C(F)(F)F)c4)c3)ccc12"
experimental_target = "NCI-H522 lung"
observable = "TGI"
value_observed = 2


Please turn your attention to the following entry.
The recorded TGI for COc1ccc2nc3ccc(OC)cc3c(S(=O)Cc3ccccc3)c2c1 (stereo not given) is 2.63

---

test system: A549 NSCLC; assay: NCI tumour cell line growth inhibition, 48 h
List of TGI values.

As a guide, the following entries are already answered.
[[record]]
compound = "NS(=O)(=O)c1ccc(N=Nc2c(O)[nH]c3ccc(C(=O)NCCCn4ccnc4)cc23)cc1"
observable = "TGI"
value_observed = "> 25 µM"

[[record]]
compound = "O=C1C(Cl)C(c2ccc(O)cc2)N1n1cnc2ccccc2c1=O (configuration not stated)"
observable = "TGI"
value_observed = "> 100 µM"


// field: TGI; key: CS(=O)(=O)N1CCC(Nc2ncc(C(=O)c3c(F)cccc3F)c(N)n2)CC1 ; value = > 25 µM

Lab note: O=C(c1ccccc1)c1ccc(N2C(=O)/C(=C/c3ccccc3S)N=C2c2ccccc2)c(N2C(=O)/C(=C/c3ccccc3S)N=C2c2ccccc2)c1 gave TGI of > 100 µM

Sample CC(C)c1cnc(-c2cc(Cl)ccc2F)cc1Nc1ccncc1C(=O)NC(CO)CO ; TGI observed: 62.3 µM

The compound listed as CNC(=O)/C=C/C1=CN2C(=O)c3ccc(C)c(O)c3NC(OC)C2C1 (configuration not stated) shows TGI equal to > 100 µM

What the record says about O=C1CCc2cc(Br)ccc2O1 : TGI is > 100 µM

---

system: RXF 393 renal; experiment: NCI tumour cell line growth inhibition, 48 h
OBSERVABLE: TGI (µM)
Numeric only. Scale: µM

Here's what some known entries look like.
[[record]]
molecule = "CC(C)C[C@H](NC(=O)[C@@H](Cc1ccccc1)n1ccc(Nc2ccccc2)cc1=O)B(O)O"
unit_abbreviation = "µM"
value_observed = 0.564

[[record]]
molecule = "COc1ccccc1CNCCCN1C(=O)c2ccc3c4c(ccc(c24)C1=O)C(=O)N(CCCNCCCCNCCCN)C3=O"
unit_abbreviation = "µM"
value_observed = 1.39

[[record]]
molecule = "CCOC(=O)CCc1c(C)c2c(OC)cc(OC)cc2oc1=O"
unit_abbreviation = "µM"
value_observed = 82.4

[[record]]
molecule = "Nc1c(C(=O)Nc2cccc(Cl)c2)sc2nc3c(cc12)C(O)CCC3 (stereo not drawn)"
unit_abbreviation = "µM"
value_observed = 2.87

[[record]]
molecule = "CCOC(=O)c1ccc(N=C2Sc3nc4ccccc4n3C2=Nc2ccc(C(=O)OCC)cc2)cc1"
unit_abbreviation = "µM"
value_observed = 59.3


// COc1cc2cc(C(=O)N3CC(CCl)c4ccc(NO)cc43)[nH]c2c(OC)c1OC (stereo not drawn) : TGI value = 0.343

Short answer for C=C(C)COc1ccc2c(c1)CCC1C2CCC2(C)C(=O)/C(=N/O)CC12 (stereo not drawn) : TGI was 6.78

Recorded result, Cc1nc2ccc(-n3ncc(C(=O)c4cc5ccccc5[nH]4)c3N)cc2[nH]1 , TGI: 15.7

---

tested on: HL-60(TB) leukemia; assay: NCI tumour cell line growth inhibition, 48 h; in the data active = GI50 below about 0.43 µM; inactive = the rest
Give one outcome, nothing more. List: label 1 for active, label 0 for inactive

[[record]]
compound = "CCOC(=O)C1=C(C)NC2SC(=O)/C(=C\\c3cccc(Cl)c3)N2C1c1ccccc1 (centres undefined)"
class = "label 0"


Called result for O=S(=O)(NCCNc1nccc(-c2c(-c3ccc(F)cc3)nc3sccn23)n1)c1ccc(O)cc1
label 0

Please state the recorded outcome for this compound: CCc1ccc(Oc2c(-c3ccc(OCCc4cccc(C(F)(F)F)c4)cc3O)n[nH]c2C(F)(F)F)cc1
label 0

Record request — test call for CCN1C(=O)/C(=c2\sc3n(c2=O)C2C(NN=3)N(CC)C(=O)N2CC)c2ccccc21 (centres undefined)
label 1

Please let me know the test result on file for COc1cccc2nc(Nc3cccc(NC(=O)c4ccc(N5CCN(C)CC5)c(C(F)(F)F)c4)c3)ccc12 .
label 0

Would you mind telling me which call this test gave Cc1cc(S(=O)(=O)Nc2nc3ccccc3c(=O)n2Cc2ccco2)c(S)cc1Cl ?
label 0

Identify the outcome logged in this assay for the compound shown: CC(C)[C@@]12C[C@@H](OC(=O)COC(=O)c3ccccc3)[C@@](C)(O1)[C@@H]1CC[C@@H](C)[C@H]1[C@@H]2OC(=O)/C=C/c1ccccc1
label 0

Hello, I am checking results. What call was entered for COc1ccc2[nH]c(C(=O)OCc3ccc4c(Br)cc(Br)c(O)c4n3)cc2c1 ?
label 0

Tell me the recorded outcome of this test for c1cc[n+](Cc2c3ccccc3cc3c2ccc2ccccc23)cc1 .
label 0

---

system: 786-0 renal; test: NCI tumour cell line growth inhibition, 48 h
OBSERVABLE: TGI

Completed entries (count: 3):
[[record]]
compound = "O=C(Nn1c(-c2ccccc2)nc2ccccc2c1=O)c1cccc([N+](=O)[O-])c1"
value_observed = "> 100 µM"

[[record]]
compound = "NC1=NC(c2ccc(Cl)cc2)=CC(c2cccc(Cl)c2)S1 (stereo not given)"
value_observed = "> 100 µM"

[[record]]
compound = "O=c1ccn(C/C=C/c2ccccc2)c(=S)n1C/C=C/c1ccccc1"
value_observed = "> 100 µM"


Lookup result for CCN1CCN(Cc2ccc(NC(=O)Nc3nc(-c4cc(OC)c(OC)c(OC)c4)cs3)cc2C(F)(F)F)CC1 ; measured TGI: 3.15 µM

---

test system: SR leukemia; assay: NCI tumour cell line growth inhibition, 48 h
OBSERVABLE: TGI

Please review the entries below; each comes with its answer.
[[record]]
compound = "CC(C)(C)OC(=O)N(O)CCCn1cnc2c(NC3CC3)ncnc21"
value_observed = "> 100 µM"

[[record]]
compound = "O=C(/C=C(/C=C/c1cccc2[nH]ccc12)OB(F)F)/C=C/c1cccc2[nH]ccc12"
value_observed = "> 100 µM"

[[record]]
compound = "CCC1=CC(OCc2ccccc2)C(CCN(Cc2ccccc2)C(=O)OCc2ccccc2)C1 (configuration not stated)"
value_observed = "56.4 µM"


TGI in this record for CN(C)CC1(Cc2ccccc2)CC/C(=C\c2ccccc2)C1=O (configuration not stated) : 60.4 µM

The value of TGI measured for the compound CCc1ccc(Oc2c(-c3ccc(OCCc4cccc(C(F)(F)F)c4)cc3O)n[nH]c2C(F)(F)F)cc1 turned out to be 12 µM

Per the record, Cn1c2c(c3ccccc31)CCN1C[C@@H]3CCCC[C@H]3C[C@@H]21 has TGI of > 25.8 µM

Just so you know, measured TGI for CCCCCC(=O)OC[n+]1ccc2c(C)c3[nH]c4ccc(OC)cc4c3c(C)c2c1 came out at > 100 µM

Query COc1ccc2c(O)c1-c1c(OC)ccc(c1O)SSc1ccc(OC)c(c1O)-c1c(OC)ccc(c1O)SS2 yields TGI of 21.5 µM

Just so you know, measured TGI for CC(=O)Oc1ccc2c(c1)[nH]c1c3ccc(OC(C)=O)cc3oc(=O)c21 came out at 71.7 µM

---

The following compounds are shown together with reported TGI values.
tested on: OVCAR-5 ovarian; experiment: NCI tumour cell line growth inhibition, 48 h

[[record]]
compound = "Cc1ccc(S(=O)(=O)c2ccc(C)cc2[N+](=O)[O-])c([N+](=O)[O-])c1"
observable = "TGI"
value_observed = "> 100 µM"


Hey, OVCAR-5 ovarian data for Cc1ccc(C2=NN(c3ccc(S(=O)(=O)NC(=O)NCc4ccccc4)cc3)C(c3ccc(N(C)C)cc3)C2)c(C)c1 (centres undefined) : TGI came out at 29.3 µM

# COc1cc(/C=C2\CC3C4CCC5=CC(=O)CC[C@]5(C)C4CC[C@]3(C)C2=O)ccc1OCCN1CCCC1 (some centres undefined) with OVCAR-5 ovarian: TGI is 8.26 µM

Here COc1cc2cc(C(=O)N3CC(CCl)c4ccc(NO)cc43)[nH]c2c(OC)c1OC (centres undefined) was tested on OVCAR-5 ovarian, and its TGI came to > 37.2 µM

// TGI (OVCAR-5 ovarian) for O=S(=O)(O)c1c(Cl)c(Cl)c(O)c2ncccc12 = 42 µM

Value sought: TGI, system OVCAR-5 ovarian, item c1ccc(-c2cc3nc4ccccc4nc3cc(-c3ccccc3)[nH][nH]2)cc1 . Result: > 100 µM
